B1: PLK2 (parent)
chain: YAELGQCSVFPATDAPEQFISQVT

Variants of: B1
Assay: protein stability index of a GFP-peptide fusion (GPS, HEK-293T) (PSI 1-6); higher = more stable;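 also: lentivirally expressed fusions sorted by FACS into six bins by GFP to DsRed ratio, PSI derived from sequencing read proportions per bin multiplied by bin number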
Conditions: c terminus: a fixed tail appended
readoutLabel: protein stability index
Hey, just send me the number, nothing else.

// below: answered variants
S8C ... 1.64
S21N ... 2.14
Q6I ... 1.57
T13H ... 2.2
P16T ... 2.05
E17Q ... 2.9
F19I ... 2.28
A12V ... 2.1

The reported protein stability index of the variant V23Q was 2.56

Sample P16S ; protein stability index observed: 2.33

Per the record, Y1I has protein stability index of 3.44

What the record says about G5E : protein stability index is 3.81

Per the records, this variant ( C7P ) has protein stability index equal to 3.45

Recorded protein stability index (variant D14T ): 1.94

protein stability index reported for this variant Y1V : 3.56

// field: protein stability index; key: F19K ; value = 2.97

Per the records, this variant ( F19W ) has protein stability index equal to 1.9

Source: the supplement of paper PMC10567573
